Experimental system: T1, His-tagged human B7-H3 (human, UniProt Q5ZPR3-2 29-245, limits assumed)
T1 construct: Bought His-tagged protein coated on the ELISA plate; also called hu B7-H3; CD276
T1 sequence (looked up): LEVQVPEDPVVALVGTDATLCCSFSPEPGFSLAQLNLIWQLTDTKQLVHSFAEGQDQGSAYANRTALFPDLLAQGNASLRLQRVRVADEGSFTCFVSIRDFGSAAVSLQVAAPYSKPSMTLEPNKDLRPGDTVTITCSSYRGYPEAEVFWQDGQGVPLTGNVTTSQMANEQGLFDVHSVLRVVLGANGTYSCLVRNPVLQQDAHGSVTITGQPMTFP
Test name: ELISA, coated His-tagged antigen, scFv-Fc 1 ug/ml
Measurement kind: ELISA OD450 @ 1 ug/ml (OD450)
Give the quantity in OD450, number only.

Some solved entries appear below for comparison.
| Binder | ELISA OD450 @ 1 ug/ml / OD450 |
| --- | --- |
| 40511p1.1.A1 (scFv, V domains shown, Tested as scFv-Fc (Expi293 supernatant)) VH: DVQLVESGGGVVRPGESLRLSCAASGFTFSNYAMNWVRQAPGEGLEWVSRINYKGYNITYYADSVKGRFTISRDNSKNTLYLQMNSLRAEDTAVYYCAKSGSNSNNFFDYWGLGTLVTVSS VL: EIVLTQSPGTLSVSPGERATLSCRASQSVNSKLAWYQQRPGQAPRLLIYDASSRATGIPDRFSGSGSGTDFTLTISRLEPEDFAVYYCQQYKNWPPLTFGGGTKVEIK | 1.9 |
| 40633p1.1.D11 (scFv, V domains shown, Tested as scFv-Fc (Expi293 supernatant)) VH: EVQLLESGGGLVQPGGSLRLSCAASGFTFRSYAMSWVRQAPGKGLEWVAYIGSSGGTTYYADSVKGRFTISRDNSKNTLYLQMNSLRAEDTAVYYCVKESYYYMDVWGQGTTVTVSS VL: QSVLTQPPSASGTPGQRVTISCSATISNIDINRVSWYQQLPGTAPKLLIFNSQRPSGVPDRFSGSKSGTSASLAISGLQSEDEADYYCATWDDSLNSWVFGGGTKLTVL | 1.72 |

Below: the item to evaluate.
// query ELISA OD450 @ 1 ug/ml value for entry 40511p1.2.B5 (scFv, V domains shown, Tested as scFv-Fc (Expi293 supernatant)) VH: DVQLVESGGGVVRPGESLRLSCAASGFTFSSYAMSWVRQAPGEGLEWVSSISGSGGSTLYADSVKGRFTISRDSSNNSLYLQMNSLRAEDTAVYYCAKARNNFFDYWGLGTLVTVSS VL: EIVLTQSPGTLTLSPGERATLSCRASRSILTSLAWYQQRPGQTPRLLIYGANSRATGIPDRFSGSGSGTEFTLTISSLQSEDFAVYYCQQYYDWLTITFGGGTKVEIK
2.14
